assayTarget: Nuclear receptor subfamily 1 group I member 2 (Homo sapiens) (UniProt O75469)
experimentDescription: Human pregnane X receptor (PXR) activation by small molecules, qHTS assay (AID 1346985); further: nearly all actives have a fitted effect of over 40% in size
measurementSetup: DPX-2 HepG2 CYP3A4-luciferase, 24 h; series mostly up to 38.3 µM
Results filed as inconclusive are left out. Calls of active or inactive are those of the source. The call rests on the fitted dose curve; in most records, active means well fitted activation curve with a large enough effect in the repeat runs; inconclusive means weak or mixed curves; inactive means flat fitted curve, though single readings scatter.
Hi! Could you answer with just one of these? 1.0 = active, 0.0 = inactive

Some entries whose results are on file:
| molecule | assayTarget | assignedClass |
| --- | --- | --- |
| C[C@@H]1CC(=O)NN=C1c1ccc(NN=C(C#N)C#N)cc1 | Nuclear receptor subfamily 1 group I member 2 (Homo sapiens) (UniProt O75469) | 0.0 |
| O=C(/C=C/c1ccc(O)c(O)c1)O[C@@H]1C[C@@](OC(=O)/C=C/c2ccc(O)c(O)c2)(C(=O)O)C[C@@H](O)[C@@H]1O | Nuclear receptor subfamily 1 group I member 2 (Homo sapiens) (UniProt O75469) | 0.0 |
| CCOC(=O)c1ccc(C#Cc2ccc3c(c2)C(C)(C)CCS3)nc1 | Nuclear receptor subfamily 1 group I member 2 (Homo sapiens) (UniProt O75469) | 0.0 |
| C[C@H]1c2cccc(O)c2C(O)=C2C(=O)[C@]3(O)C(O)=C(C(N)=O)C(=O)[C@@H](N(C)C)[C@@H]3[C@@H](O)[C@@H]21 | Nuclear receptor subfamily 1 group I member 2 (Homo sapiens) (UniProt O75469) | 0.0 |
| NNC(=O)CP(=O)(c1ccccc1)c1ccccc1 | Nuclear receptor subfamily 1 group I member 2 (Homo sapiens) (UniProt O75469) | 0.0 |

Could you check what this test reported for CN1CCCN=C1COC(=O)C(O)(c1ccccc1)C1CCCCC1 (configuration not stated) ? 0.0

Query: recorded result category for CCCC(C(=O)OCCN(CC)CC)(c1ccccc1)c1ccccc1 in this test 1.0

How did this test come out for CC[N+](CC)(CCNC(=O)C(=O)NCC[N+](CC)(CC)Cc1ccccc1Cl)Cc1ccccc1Cl ? 0.0

Can you look up the reported call for O[C@@H]1CO[C@H]2[C@@H]1OC[C@@H]2O for me? 0.0

What outcome does the record of this test show for CC[C@]1(O)C[C@H]2CN(CCc3c([nH]c4ccccc34)[C@@](C(=O)OC)(c3cc4c(cc3OC)N(C=O)[C@H]3[C@@](O)(C(=O)OC)[C@H](OC(C)=O)[C@]5(CC)C=CCN6CC[C@]43[C@@H]65)C2)C1 ? 1.0
